Test system: T lymphocytes expressing CXCR5 in PBMCs of healthy donors
protocol_text: CXCR5 expression in T-lymphocytes after peptide stimulation (flow cytometry)
Type: cell-based, human
conditions: donor Pz1; peptides 5ug/ml; 4 days after third stimulation
Quick rule for you: Percentage of T-lymphocytes expressing CXCR5 under 20% gets met, anything else gets not met.

Seq.9: Aβ[25-42] fragment modified by introduction of glycines in alternate positions, at odd positions (-G) (GSGKGAGIGLGVGGGVGA) : not met
Seq.8: Aβ[25-42] fragment of the Aβ[1-42] sequence (GSNKGAIIGLMVGGVVIA) : met
Seq.5: Aβ[13-28] fragment of the Aβ[1-42] sequence (HHQKLVFFAEDVGSNK) : met
Seq.6: Aβ[13-28] fragment modified by introduction of glycines in alternate positions, at odd positions (-G) (GHGKGVGFGEGVGSGK) : not met

Moving on to another substance below.
Is 20% strictly greater than the substance's reported Percentage of T-lymphocytes expressing CXCR5? substance: Seq.3: Aβ[1-16] fragment modified by introduction of glycines in alternate positions, at odd positions (-G) (GAGFGHGSGYGVGHGK)
met
